Test: viability loss with induced miR-34 in A549 – imaging, A549 dox-inducible miR-34, nuclei and caspase counts, primary screen (AID 1347080)
Conditions: A549 miR-34 inducible, Hoechst nuclei count, 48 h; stronger effect = lower value; cell number ratio, induced over uninduced
A collection of compounds and their measured fold change
readout-type: fold change

compound=CC\C=C/C=C/C=C/C=C\CCCCCCCC(=O)O val=0.875
compound=COC(=O)N1CCN(Cc2cccc(NC(=O)Nc3ccc(C)nc3)c2F)CC1 val=0.947
compound="COc1ccc(C2(C#N)CCC(C(=O)O)CC2)cc1OC1CCCC1 (stereo unspecified)" val=0.931
compound="CCC(=O)NC1CCc2cccc(OC)c2C1 (stereo unspecified)" val=1.01
compound=Cc1ccc2c(=O)c3ccccc3n(CCCN)c2c1C val=1.17
compound=Cc1cc(C)c(N(Cc2ccccc2)S(=O)(=O)c2ccc(OCCNC(=O)c3cc4ccccc4o3)cc2)c(C(=O)NO)c1 val=0.895
compound=CCCCC/C=C\C/C=C\C/C=C\C/C=C\CCCCNC(=O)c1ccc(O)cc1 val=0.937
compound="CCCCC(C)(O)C/C=C/[C@H]1[C@H](O)CC(=O)[C@H]1CCCCCCC(=O)OC (stereo partly specified)" val=1.02
compound=CN(C)C(=O)n1nnnc1Cc1ccc(-c2ccccc2)cc1 val=1.31
compound=CCCCC(C)(C)[C@H](O)/C=C/[C@H]1[C@H](O)CC(=O)[C@@H]1CC(=O)CCCCC(=O)O val=0.919
compound=CNC(=O)c1ccc2c(C(=Nc3cccc(CN(C)C)c3)c3ccccc3)c(O)[nH]c2c1 val=0.967
compound=O=C(O)c1ccc2c(c1)nc(Nc1cccc(Cl)c1)c1ccncc12 val=0.797
compound=CCCCCCCC/C=C\CCCCCCCC(=O)NCCS(=O)(=O)O val=0.992
compound=O=C(O)CCCCCCCCCCCNC(=O)NC12CC3CC(CC(C3)C1)C2 val=0.971
compound=CCCCC[C@H](O)/C=C/[C@H]1[C@H](O)CC(=O)[C@H]1CCCCCCC(=O)O val=1.03
compound="CC(C)CCCC(C)NC(C)C (stereo unspecified)" val=0.993
compound=CCCCC[C@@H](O)/C=C/[C@H]1[C@H](O)CC(=O)[C@@H]1C/C=C\CCCC(=O)O val=0.971
compound="O=C(/C=C/c1ccccc1)NC(NC(=S)Nc1cccc2cccnc12)C(Cl)(Cl)Cl (stereo unspecified)" val=1.01
compound=Cc1cc(-c2ccc(CC(=O)Nc3ccc(-c4cccnc4)cc3)cc2)ccn1 val=0.957
compound=CCCCC[C@H](O)/C=C/[C@H]1C(=O)C[C@H](O)[C@@H]1CCCCCCCO val=1.14
compound="CCc1cc(C2NNC(C)C2c2ccc3c(c2)OCCO3)c(O)cc1O (stereo unspecified)" val=1.01

---

A collection of molecules and their measured viability
Experiment: drug combination growth inhibition, ovarian cancer – cell-based, oncology-focused library, rucaparib conditional, profiling panel (AID 1508598)
Details: patient-derived ovarian cancer cells, CellTiter-Glo viability, 144 h; at 0.0781 µM; OCI-C5x cells; with rucaparib 10 µM; stronger effect = lower value; 100% = cells with rucaparib alone
Activity calls are given as the source filed them.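 Rule for the calls: active = normalized viability below 100% at a tested concentration; inactive = the rest.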
readout-type: viability

compound_structure=COc1ccc(-c2ccc3c(N4CCOCC4)nc(N4C[C@@H](C)O[C@@H](C)C4)nc3n2)cc1CO val="122% (inactive)"
compound_structure=CC(C)CC(=O)Nc1n[nH]c2c1CN(C(=O)C1CCN(C)CC1)C2(C)C val="112% (inactive)"
compound_structure=COC(=O)c1ccc2c(C(=Nc3ccc(N(C)C(=O)CN4CCN(C)CC4)cc3)c3ccccc3)c(O)[nH]c2c1 val="116% (inactive)"
compound_structure=CC(C)c1ccccc1Cc1cc(C(=O)Nc2ccc(S(=O)(=O)c3ccccc3C(C)(C)C)cc2)c(O)c(O)c1O val="110% (inactive)"

---

Experiment: viability loss in pontine glioma line – cell-based, SU-DIPG-XXV, MIPE5.0, CellTiter-Glo, qHTS, dose response (AID 1347065);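 note: cells exposed to compound for 48 hours before ATP readout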
Conditions: CellTiter-Glo ATP luminescence
Records with an inconclusive call do not appear. Activity calls are given as the source filed them. Cut-off not given; nearly all actives show AC50 up to about 26 µM.
Outcomes: active, inactive

molecule=Cc1cnc(NC(=O)Nc2cc(Br)c(C)cc2OC[C@@H]2CNCCO2)cn1 label=active
molecule="CNC1CCC(N(Cc2cccc(-c3ccncc3)c2)C(=O)c2sc3ccccc3c2Cl)CC1 (centres undefined)" label=active
molecule=COc1ccc2cc(OCC3(C(=O)O)CN(C(=O)c4ccc(F)cc4)C3)ccc2c1 label=inactive
molecule=O=c1c(O)c(-c2cc(O)c(O)c(O)c2)oc2cc(O)cc(O)c12 label=inactive
molecule=COc1ccccc1C(=O)Nc1cc2c(cc1N1CCNC[C@H]1C)n(C)c(=O)n2C label=inactive
molecule=COc1cc2c(Oc3ccc4[nH]c(C)cc4c3F)ccnc2cc1OCC1(N)CC1 label=active
molecule=[2H]c1nc(C)nc([2H])c1-c1cc(NC[C@@H](C)c2cccc3c(C(=O)NC)ccnc23)ncn1 label=inactive
molecule=CCc1c(O)cc(O)c(C(=O)c2ccc(OCCN3CCOCC3)c(OC)c2)c1CC(=O)N(CCOC)CCOC label=active
molecule=CN[C@@H]1C[C@H]2O[C@@](C)([C@@H]1OC)n1c3ccccc3c3c4c(c5c6ccccc6n2c5c31)C(=O)N[C@H]4O label=active

---

Experiment: drug combination growth inhibition, ovarian cancer – cell-based, oncology-focused library, rucaparib conditional, profiling panel (AID 1508598)
Details: patient-derived ovarian cancer cells, CellTiter-Glo viability, 144 h; at 0.0195 µM; OCI-P5x cells; with rucaparib 20 µM; 100% = cells with rucaparib alone
Activity calls are given as the source filed them.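 How the source made its calls: active means normalized viability below 100% at a tested concentration; inactive means the rest.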
Outcomes: class 1 = active, class 0 = inactive

compound_structure=COc1cc2nccc(Oc3ccc(NC(=O)NC4CC4)c(Cl)c3)c2cc1C(N)=O label="class 0"
compound_structure=CN(C)Cc1c(C(=O)NCCOc2ccc(C(=O)NO)cc2)oc2ccccc12 label="class 1"
compound_structure=Cc1ccc(C(=O)N(CCCN)[C@@H](c2nc3cc(Cl)ccc3c(=O)n2Cc2ccccc2)C(C)C)cc1 label="class 1"
compound_structure=CN(C)C/C=C/C(=O)Nc1cc2c(Nc3ccc(F)c(Cl)c3)ncnc2cc1O[C@H]1CCOC1 label="class 0"
compound_structure=Cc1ccc(C(=O)Nc2ccc(CN3CCN(C)CC3)c(C(F)(F)F)c2)cc1C#Cc1cnc2cccnn12 label="class 0"
compound_structure=COCCOc1nc(-c2ccc(Cl)c(Cl)c2)n(-c2ccc(NC(=O)CCl)cc2)n1 label="class 0"
compound_structure=C=CC(=O)Nc1cccc(Oc2nc(Nc3ccc(N4CCN(C)CC4)cc3OC)ncc2Cl)c1 label="class 0"
compound_structure=C[C@@H]1CN(CC(=O)Nc2ccc3c(c2)Cc2cccc(-c4cc(=O)cc(N5CCOCC5)o4)c2S3)C[C@H](C)O1 label="class 0"
compound_structure=Cc1nc2c(-c3cnc(N)nc3)nc(N3CCOCC3)nc2n1C(C)C label="class 1"

---

Experiment: drug combination growth inhibition, ovarian cancer – cell-based, oncology-focused library, rucaparib conditional, profiling panel (AID 1508598)
Conditions: patient-derived ovarian cancer cells, CellTiter-Glo viability, 144 h; at 0.0195 µM; OCI-P5x cells; with rucaparib 20 µM; stronger effect = lower value; 100% = cells with rucaparib alone
readout-type: viability (%)

compound_structure=CS(=O)(=O)c1cccc(CNc2nc(Nc3ccc4c(c3)CCC(=O)N4)ncc2C(F)(F)F)c1 val=91.7
compound_structure=CS(=O)(=O)N1CCN(Cc2cc3nc(-c4cccc5[nH]ncc45)nc(N4CCOCC4)c3s2)CC1 val=96.3
compound_structure=COc1ncc(-c2ccc3nccc(-c4ccnnc4)c3c2)cc1NS(=O)(=O)c1ccc(F)cc1F val=31.6
compound_structure=CN(C)N=Nc1nc[nH]c1C(N)=O val=103
compound_structure=Cn1cc(-c2ccc3nnc(C(F)(F)c4ccc5ncccc5c4)n3n2)cn1 val=106
compound_structure=Cc1cc(N2CCOCC2)cc2[nH]c(-c3c(NC[C@@H](O)c4cccc(Cl)c4)cc[nH]c3=O)nc12 val=133
compound_structure=CC[C@H](Nc1ncnc2nc[nH]c12)c1nc2cccc(F)c2c(=O)n1-c1ccccc1 val=87.8
compound_structure=COc1cc(OC)c(/C=C/S(=O)(=O)Cc2ccc(OC)c(NCC(=O)O)c2)c(OC)c1 val=94.8
compound_structure=CC(=O)Nc1nc(C)c(-c2ccc(Cl)c(S(=O)(=O)NCCO)c2)s1 val=99.1
compound_structure=Cc1cccc(Nc2nc(-c3ccncc3)cs2)c1 val=110
compound_structure=O=C(NC1CCNCC1)c1[nH]ncc1NC(=O)c1c(Cl)cccc1Cl val=96.7

---

Experiment: viability loss in pontine glioma line – cell-based, JHH-DIPG-1, MIPE4.0, CellTiter-Glo, qHTS, dose response (AID 1347062);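 for AC50: cells exposed to compound for two days before readout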
Conditions: JHH-DIPG-1 viability, CellTiter-Glo ATP luminescence
Records with an inconclusive call do not appear. The source made the active and inactive calls. No cut-off is given here; in the data, nearly all actives have AC50 up to about 27 µM.
Outcomes: y for active, n for inactive

compound=O=C(O)CCCCCC(=O)NN=C1CCCC1 label=n
compound=Cc1cc(Nc2ncnc3ccc(-c4ccc(CNCCS(C)(=O)=O)o4)cc23)ccc1Oc1ccn2ncnc2c1 label=y
compound=CN(C)CC(C)(C)CNc1nn2c(-c3ccccc3)nnc2cc1C1CCC1 label=y
compound=C[C@@]12C(=O)OC(=O)[C@@]1(C)C1CCC2O1 label=y
compound="COCCOC(=O)C1=C(C)NC2=C(C(=O)CC(c3ccccc3OC)C2)C1c1cccc(O)c1 (stereo unspecified)" label=n
compound=CC(=O)N[C@H]1[C@H](O[C@@H]2c3ccc(c(Cl)c3)Oc3cc4cc(c3O[C@@H]3O[C@H](CO)[C@@H](O)[C@H](O)[C@H]3NC(=O)CCCCCCCC(C)C)Oc3ccc(cc3Cl)C[C@H]3NC(=O)[C@H](N)c5ccc(O)c(c5)Oc5cc(O)cc(c5)[C@H](NC3=O)C(=O)N[C@H]4C(=O)N[C@H]3C(=O)N[C@@H]2C(=O)N[C@@H](C(=O)O)c2cc(O)cc(O[C@H]4O[C@H](CO)[C@@H](O)[C@H](O)[C@@H]4O)c2-c2cc3ccc2O)O[C@H](CO)[C@@H](O)[C@@H]1O label=n
compound=Nc1ccc(-c2ccc3ncc4ccc(=O)n(-c5cccc(C(F)(F)F)c5)c4c3c2)cn1 label=y
compound=Cc1cc(Cl)ccc1OCCCC(=O)NO label=n
compound=C=C1C(=O)O[C@@H]2[C@H]3O[C@]3(C)CC/C=C(\C)CC[C@@H]12 label=y
compound=Cc1ccc(NC(=O)Nc2cc(C(F)(F)F)ccc2F)cc1Nc1ccc2c(c1)NC(=O)/C2=C\c1ccc[nH]1 label=y
compound=COc1ccc(-n2nc(C(N)=O)c3c2C(=O)N(c2ccc(N4CCCCC4=O)cc2)CC3)cc1 label=n
compound=NC(=O)c1ccc(N(C(N)=O)c2c(F)cccc2F)nc1-c1ccc(F)cc1F label=n
compound=CCc1cccc(CC)c1NC(=O)N1Cc2[nH]nc(NC(=O)c3ccc(N4CCN(C)CC4)cc3)c2C1 label=n
compound=Cn1c(N2CCCCS2(=O)=O)nc(C(=O)NCc2ccc(F)cc2)c(O)c1=O label=n
compound=Cc1ccc([N+](=O)[O-])cc1S(=O)(=O)N(C)/N=C/c1cnc2ccc(Br)cn12 label=y
compound=O=C(NC[C@H]1CN(c2ccc(N3CCOCC3=O)cc2)C(=O)O1)c1ccc(Cl)s1 label=n
